target: HIV-1 Env of MB201 (HIV-1); experiment: cell-based or functional assay
Measured neutralization IC50 accompanies every entry in the list below.

Reported neutralization IC50, binder CAP256-VRC26.07 (antibody, V domains shown) VH: EVQLVESGGGVVQPGRSLRLSCVGSQFSFNRYGMHWVRQAPGKGLEWVAGISFDGTDRYHADNVWGRFTISRDNSKNTLYLQMSSLRAEDTALYYCAKDLREDECEEWWSDYYDFGKKLPCRKSRGVAGVFDKWGQGTMVTVSS VL: QAVLTQPPSVSAAPGQNVTISCSGSGSNIGNNFVSWYQQRPGTAPKLLIYESNKRPSGIPDRFSGSKSGTSATLAITGLQTGDEAYYYCATWAARLNSARVFGTGTMVTVLG : ____
> 50 µg/mL

Proceed to the following item.
What value of neutralization IC50 has been recorded for this entry: CAP256-VRC26.05 (antibody, V domains shown) VH: EVQLVESGGGVVQPGRSLRLSCAASHFSLSSYGMHWVRQAPGKGLEWVTGISFAGTKTYYGDSVRGRFTVSRDISKNTLFLQMNSLRPDDTAMYYCARDQRYYECEEWASDYYDFGREQPCLDPRGVVGIFDLWGQGTMVTVSS VL: QSALTQPPSVSAAPGQKVTISCSGNIGNNYVSWYQQVPGTAPKLLIYENNKRPSGIPDRFSGSKSGTSATLVITGLQTGDEADFYCGTWGGSLRTGGVLGTGTRVTVLG
> 50 µg/mL
